Hi there, I'd appreciate the recorded AC50 for every entry that follows.
# experimentalSystem: Heat shock protein HSP 90-alpha (Homo sapiens, UniProt P07900)
# Type: functional, organism-based
Active and inactive are the calls of the source.

Reference set (3 entries):
>  <smilesCode>
COc1ccc2c(c1)C=C(C(=O)NCc1ccc(Cl)cc1)CO2

>  <AC50>
69.4 µM (active)

$$$$
>  <smilesCode>
CCOC(=O)C1=C(NC(=O)Nc2ccc(Cl)c(Cl)c2)Nc2ccccc2N=C1CC

>  <AC50>
2.11 µM (active)

$$$$
>  <smilesCode>
C/C(=N\Nc1nc2ccccc2s1)c1ccc(Br)s1

>  <AC50>
3.85 µM (active)

$$$$

Now for a further compound.
Recorded AC50 of `N=C(NOC(=O)c1ccc2ccccc2c1)c1ccccc1Cl` , please.
2.34 µM (active)
